Measured values drawn from ChEMBL document CHEMBL1201862 for this set.

Documented GI50 across a set of compounds
System: RXF 631
Experiment: NCI tumour cell line growth inhibition, 48 h
Calls of active or inactive are those of the source. Cut-off read from the data, not from the text of the source: active = GI50 up to about 1.1 µM and inactive = higher.

The examples below pair each entry with its known result.
Compound	Val
Nc1ccc(Nc2nc(F)nc(-c3c4ccccc4c4n3CCS4)n2)cc1	15 µM (inactive)
CCCCCCCCCCCCCP(=O)(NCC(N)=O)OCC (centres undefined)	18.9 µM (inactive)
Cc1c(C(=O)/C=C/c2ccc3c(c2)OCO3)[n+]([O-])c2ccccc2[n+]1[O-]	53.6 µM (inactive)
OC1=CN=COc2ccccc21	> 100 µM (inactive)
CCOC(=O)C(C)(C)Oc1ccc2c(-c3ccc(Cl)cc3)cc(=O)oc2c1	> 100 µM (inactive)

Sample `O=C1C(Cl)=C(Cl)C(=O)N1c1cccc(C(F)(F)F)c1` — what was its GI50?
> 100 µM (inactive)

How about this compound: CCC(C)CC(C)CC(C)/C=C(\C)C1=C(C)CC(C)(O)O1 (centres undefined)
> 100 µM (inactive)

How about this compound: CC(=O)OCC1OC(n2cc(F)c(=O)[nH]c2=O)C(OC(C)=O)C1OC(C)=O (centres undefined)
15.5 µM (inactive)

How about this compound: CC1=NNC(=O)C2CCC(=O)N12 (centres undefined)
> 100 µM (inactive)

How about this compound: `Cc1nc2ccccc2c(=O)n1/N=C(\N=N\c1ccccc1Cl)c1ccccc1Cl`
88.9 µM (inactive)

How about this compound: `O=C(NO)C(=O)Nc1ccc(Cl)cc1[N+](=O)[O-]`
> 100 µM (inactive)

How about this compound: `CC(=O)CC(=O)NC=O`
> 100 µM (inactive)

----------
Test system: BT-549
Test: NCI tumour cell line growth inhibition, 48 h
Activity calls are given as the source filed them. Cut-off read from the data, not from the text of the source: active = GI50 up to about 1.1 µM and inactive = higher.
Property Label: GI50

The examples below pair each entry with its known result.
Compound	Property Label	Val
CCCCCCCC1C(C)c2c([nH]c3ccccc23)C2C(=O)N(c3ccc(OC)cc3)C(=O)C21 (stereo not given)	GI50	2.11 µM (inactive)
CC(C)(C)c1ccc(C(C)(C)C)c(N2C(=O)[C@@H]3[C@@H]4C=C[C@@H](C4)[C@]3(C)C2=O)c1	GI50	22.4 µM (inactive)
CCOC(=O)c1nc2cc(C(F)(F)F)ccc2nc1Nc1ccc(F)cc1	GI50	25.9 µM (inactive)
COc1ccc(C(=O)/C=C/c2ccc(OCCSCCCCCCCCCCSCCOc3ccc(/C=C/C(=O)c4ccc(OC)c(OC)c4)cc3)cc2)cc1OC	GI50	> 100 µM (inactive)
COCC1OC(OC2C3=C(C(C)C)CCC3(C)/C=C3\C(CCC3(O)COC)C(C)C2O)C(O)C2OC3OC12OC3(C)C1CO1 (stereo not given)	GI50	16.6 µM (inactive)
Cc1cc(C)n(C(=O)C(C)Sc2nnc(SC(C)C(=O)n3nc(C)cc3C)s2)n1 (stereo not given)	GI50	> 100 µM (inactive)
COc1cc([N+](=O)[O-])ccc1NC1=CC(=O)CCC1	GI50	> 100 µM (inactive)
CCN(CC)C(=O)CCN1CC1	GI50	> 10 µM (inactive)

Sample `Cc1cc2c3c(ccc4[nH]cc(c43)CN2c2ccc(NS(C)(=O)=O)cc2)n1` — what was its GI50?
35.5 µM (inactive)

How about this compound: `c1cc2c(s1)-c1sccc1C21OCCO1`
50.5 µM (inactive)

How about this compound: `O=C(NCCCCNCCCNC(=O)C(F)(F)F)C(F)(F)F`
> 100 µM (inactive)

How about this compound: `Cn1c2ccc(C3=NCCN3)cc2c2cc(C3=NCCN3)ccc21`
> 100 µM (inactive)

----------
Documented GI50 across a set of compounds
Tested on: NCI-H460
Experiment: NCI tumour cell line growth inhibition, 48 h
Calls of active or inactive are those of the source. Cut-off read from the data, not from the text of the source: active = GI50 up to about 1.1 µM and inactive = higher. Where a SMILES comes first, the peptide text is derived from it. [ ]: non-standard residue; d: D form. The star is where a group is joined. Chg = N[CH](C(=O)O)C1CCCCC1; Cbz = O=C(OCc1ccccc1)*; OBn = c1ccc(CO*)cc1

Compound	Assayed Target	Val
CN1COCc2cc3cc4c(cc3nc21)OCCO4	NCI-H460	44.8 µM (inactive)
NS(=O)(=O)c1ccc(-n2c(-c3cccs3)nc3ccc(I)cc3c2=O)cc1	NCI-H460	25.5 µM (inactive)
Cn1c(=O)c2c(ncn2Cc2ccc(O)c([N+](=O)[O-])c2)n(C)c1=O	NCI-H460	> 100 µM (inactive)
COC(=O)C(NC(=O)C(CC(=O)OCc1ccccc1)NC(=O)OCc1ccccc1)C1CCCCC1 (stereo not given) (Cbz-Asp(OBn)-[Chg]-OMe; configuration not given here)	NCI-H460	> 100 µM (inactive)

Sample `CCC1=C(CC)C1(C#N)[N+](=O)[O-]` — what was its GI50?
> 100 µM (inactive)

How about this compound: `O=C1OC[C@@H]2Cc3c([nH]c4ccccc34)[C@@H](c3cc(O)c(O)c(O)c3)N12`
37.8 µM (inactive)

How about this compound: `CC(C)(C)Sc1nnc(SC(C)(C)C)c2c(SC(C)(C)C)nnc(O)c12`
6.25 µM (inactive)

How about this compound: `O=C1C(Cl)=C(Cl)C(=O)N1c1cccc(C(F)(F)F)c1`
> 100 µM (inactive)

How about this compound: `CN1/C(=C\N=O)C(C)(C)N(O)C1(C)C`
> 100 µM (inactive)

How about this compound: `COc1ccc2cc(C(=O)NCCCNC(=O)c3ccc4c(OC)c(OC)ccc4c3)ccc2c1OC`
> 100 µM (inactive)

----------
Documented GI50 across a set of molecules
System: RXF 393
Experiment: NCI tumour cell line growth inhibition, 48 h
Active and inactive are the calls of the source. No stated cut-off is given here; in the data, active = GI50 up to about 1.1 µM and inactive = higher. Non-standard residues stand in square brackets, D forms with d. Residues, ends and D or L forms follow the SMILES beside them. *: point of attachment. Ac5c = NC1(C(=O)O)CCCC1; Cbz = O=C(OCc1ccccc1)*; Boc = CC(C)(C)OC(=O)*; tBu = CC(C)(C)*

The examples below pair each entry with its known result.
Molecule	GI50
CC(=O)O[C@H]1CC[C@H]2[C@@H]3CCC4=C/C(=N/OCCN(C)C)CC[C@]4(C)[C@H]3CC[C@]12C	12 µM (inactive)
OC1=CN=COc2ccccc21	> 100 µM (inactive)
O=C(NC1C(=O)NC(CCc2ccccc2)NC1=O)OCc1ccccc1 (stereo not drawn)	> 100 µM (inactive)
COC(=O)C1(NC(=O)C(Cc2ccccc2)NC(=O)C(NC(=O)C(CCCCNC(=O)OC(C)(C)C)NC(=O)C(Cc2c[nH]c3ccccc23)NC(=O)C(Cc2ccccc2)NC(=O)OCc2ccccc2)C(C)OC(C)(C)C)CCCC1 (stereo not drawn) (Cbz-FWK(Boc)T(tBu)F[Ac5c]-OMe; configuration not given here)	> 100 µM (inactive)
N#C/C(=C/c1ccc[nH]1)P(=O)(O)O	> 100 µM (inactive)
CSC1=Nc2ccccc2-c2nc3ccccc3cc2C1	> 100 µM (inactive)

Provide value of GI50 for this record tested with RXF 393: `O=C1OC[C@@H]2Cc3c([nH]c4ccccc34)[C@@H](c3cc(O)c(O)c(O)c3)N12`
18.9 µM (inactive)

How about this molecule: Nc1ccccc1[S+]([O-])c1ccccc1 (stereo not drawn)
> 100 µM (inactive)

----------
Tested on: SK-MEL-5
Experiment: NCI tumour cell line growth inhibition, 48 h
Active and inactive are the calls of the source. Cut-off read from the data, not from the text of the source: active = GI50 up to about 1.1 µM and inactive = higher.
Parameter call: string, one of active, inactive

Compound	Category
CCOC(C)OCC#CCCBr (stereo not given)	inactive
O=C(O)COc1ccc(C(=O)/C(SS/C(C(=O)c2ccc(OCC(=O)O)c(Cl)c2Cl)=C2\C=C(c3ccccc3Cl)SS2)=C2/C=C(c3ccccc3Cl)SS2)c(Cl)c1Cl	inactive
CC(C)c1ccc2nc3ccc(C(=O)NCCN4CCN(c5ccccc5)CC4)cn3c(=O)c2c1	inactive
C/C(=N\NC(=S)N1CCN(C2CCCCCC2)CC1)c1ccccn1	active
CCOC(=O)Cn1c(=O)c2nc(SC)sc2n(-c2ccccc2)c1=S	inactive
CSC1=Nc2ccccc2-c2nc3ccccc3cc2C1	inactive

Record lookup: outcome of this test for CC(=O)NC(Cc1ccc(OP(=O)(OCc2ccc([N+](=O)[O-])o2)N(C)CCCCCl)cc1)C(=O)NC(C)c1ccc(OCC2CCCCC2)c(C(N)=O)c1 (stereo not given) ?
inactive

How about this compound: `CCOC(=O)Cn1nnc2cc(Nc3c(C)[n+]([O-])c4cc(F)c(OCC)cc4[n+]3[O-])ccc21`
inactive

How about this compound: CC1CC(C)(O)CC(C(O)CC2CC(=O)NC(=O)C2)C1=O (stereo not given)
active

----------
Tested on: KM12
Assay: NCI tumour cell line growth inhibition, 48 h
Active and inactive are the calls of the source. Cut-off read from the data, not from the text of the source: active = GI50 up to about 1.1 µM and inactive = higher.
Property Label: GI50

The examples below pair each entry with its known result.
Molecule	GI50
Cc1cc(N(CCC#N)CCC#N)ccc1C(/N=N/c1ccc(Cl)cc1)=N\NC(=O)c1ccccc1	20.2 µM (inactive)
CCCCCCCCCCCCCCCCCC(=O)OCC(COC1OC(CS(=O)(=O)O)C(O)C(O)C1O)OC(=O)CCCCCCCCCCCCCCCCC (stereo not given)	> 100 µM (inactive)
CCOC(=O)C(C(=O)OCC)P(=S)(S)c1ccccc1 (stereo not given)	> 100 µM (inactive)
O=C(OCc1ccccc1)N1CCCc2c(n(S(=O)(=O)c3ccccc3)c3ccccc23)C1	> 100 µM (inactive)
CC1(C)OCC2OC3([C@@H]4OC(C)(C)O[C@H]4CO)OC(C)(C)OC3C2O1 (stereo not given in full)	> 100 µM (inactive)
C/C(=C\c1ccccc1)C(=O)c1c(C)cc(C)cc1C	> 100 µM (inactive)
NS(=O)(=O)c1ccc(-n2c(-c3cccs3)nc3ccc(I)cc3c2=O)cc1	24.1 µM (inactive)
CN(C)CCCN1c2ccccc2CCc2cc([N+](=O)[O-])ccc21	17.5 µM (inactive)

Provide value of GI50 for this record tested with KM12: `CSc1c(C(=O)Nc2ccccc2)c(N)nn1-c1ccccc1`
> 100 µM (inactive)

How about this molecule: `Cc1cc(=O)n(-c2c(C)cccc2Cl)c(/C=C(\O)c2ccncc2)n1`
48.5 µM (inactive)

How about this molecule: COc1cc2c(cc1OCCCC(=O)Nc1cc(C(=O)Nc3cc(C(=O)Nc4cc(C(=O)NCCCN(C)C)n(C)n4)n(C)c3)n(C)c1)N=CC1CCCN1C2=O (stereo not given)
24 µM (inactive)

How about this molecule: `COc1cc2ccc(C(=O)O)cc2cc1OC`
> 100 µM (inactive)

How about this molecule: CC(=O)/C=C/C1=C(C)CCCC1(C)CC(C)C (stereo not given)
34.8 µM (inactive)

How about this molecule: COC(=O)[C@H]1C[C@H]1NC(=O)C(CC(=O)OCc1ccccc1)NC(=O)OCc1ccccc1 (stereo not given in full)
31.6 µM (inactive)

How about this molecule: `COC1=C(N)C(=O)c2nc(C)ccc2C1=O`
1.87 µM (inactive)

How about this molecule: `O=[N+]([O-])c1cnc(N(CCO)CCO)s1`
> 100 µM (inactive)

How about this molecule: Cc1cc(C)n(C(=O)C(C)Sc2nnc(SC(C)C(=O)n3nc(C)cc3C)s2)n1 (stereo not given)
> 100 µM (inactive)

How about this molecule: `Cc1ccccc1C(=O)N/N=C/c1ccc(Sc2nccn2C)c([N+](=O)[O-])c1`
66.7 µM (inactive)

How about this molecule: CCCCC(C)/C=C/C(O)=C1\C(=O)O/C(=C\C(=O)O)C1=O (stereo not given)
> 100 µM (inactive)

How about this molecule: `CC(C)(O)[C@H](CCO)O[Si](c1ccccc1)(c1ccccc1)C(C)(C)C`
11.6 µM (inactive)

How about this molecule: O=C1C=C(c2ccccc2)NC1(c1ccccc1)c1cc(-c2ccccc2)[nH]c1-c1ccccc1 (stereo not given)
> 100 µM (inactive)

How about this molecule: `O=c1[nH]c(=S)[nH]n1C(=S)n1[nH]c(=S)[nH]c1=O`
> 100 µM (inactive)
